- tgt: Sko1 (UniProt Q02100)
- Sequence: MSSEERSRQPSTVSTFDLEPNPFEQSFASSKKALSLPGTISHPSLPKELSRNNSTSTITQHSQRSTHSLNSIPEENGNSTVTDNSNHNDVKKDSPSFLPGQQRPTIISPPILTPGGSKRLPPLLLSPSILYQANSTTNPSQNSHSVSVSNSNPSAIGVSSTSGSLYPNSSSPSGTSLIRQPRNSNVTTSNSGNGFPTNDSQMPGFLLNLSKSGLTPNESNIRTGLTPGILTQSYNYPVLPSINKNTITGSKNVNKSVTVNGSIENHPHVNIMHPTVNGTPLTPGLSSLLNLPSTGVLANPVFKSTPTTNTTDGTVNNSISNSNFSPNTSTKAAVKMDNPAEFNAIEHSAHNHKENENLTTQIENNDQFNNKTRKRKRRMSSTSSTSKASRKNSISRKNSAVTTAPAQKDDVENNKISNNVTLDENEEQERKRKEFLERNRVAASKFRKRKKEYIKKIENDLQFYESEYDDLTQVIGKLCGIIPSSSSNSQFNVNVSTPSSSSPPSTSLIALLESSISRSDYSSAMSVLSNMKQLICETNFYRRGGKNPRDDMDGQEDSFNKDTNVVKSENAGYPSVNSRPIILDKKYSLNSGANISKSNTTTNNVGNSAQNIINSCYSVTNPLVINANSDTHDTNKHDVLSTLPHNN
- assay_procedure: PBM E-score (8-mer binding enrichment) (E-score (-0.5 to 0.5)); higher = stronger / more preferred TF binding
- measurement_conditions: protein concentration: 200 nM; construct: GST-full length
The full ranking holds about 33,000 sequences; the median of “E-score (-0.5 to 0.5)” is about -0.032, and the highest 2% start at about 0.36. Only a selection was taken, and the highest values are over-represented in it overall.
This section presents sequences with their documented PBM E-score values.

polymer_sequence	tgt	PBM E-score
CACGCAAA	Sko1 (UniProt Q02100)	0.26
AACTCAGG	Sko1 (UniProt Q02100)	-0.0444
GGTATACA	Sko1 (UniProt Q02100)	0.0243
CGTATATC	Sko1 (UniProt Q02100)	0.319
CGGTCATA	Sko1 (UniProt Q02100)	0.0986
CGTATACG	Sko1 (UniProt Q02100)	0.393
CGATGGGA	Sko1 (UniProt Q02100)	-0.0417
AATAACGT	Sko1 (UniProt Q02100)	0.426
AGTATACG	Sko1 (UniProt Q02100)	0.267
GACGCACA	Sko1 (UniProt Q02100)	0.36
GCGGTTAA	Sko1 (UniProt Q02100)	-0.186
AATAACGG	Sko1 (UniProt Q02100)	0.138
CACGCAAG	Sko1 (UniProt Q02100)	0.3
CTGCCCGC	Sko1 (UniProt Q02100)	-0.0733
ATCTGTAG	Sko1 (UniProt Q02100)	-0.0704
CATATGAG	Sko1 (UniProt Q02100)	-0.0409
AGTATACA	Sko1 (UniProt Q02100)	0.0979
AACGCACG	Sko1 (UniProt Q02100)	0.31
CATATGAC	Sko1 (UniProt Q02100)	0.404
AGTATATA	Sko1 (UniProt Q02100)	0.254
ATCAGATC	Sko1 (UniProt Q02100)	-0.0621
CCGTCATC	Sko1 (UniProt Q02100)	0.36
